# STUDY_TARGET: UniProtKB Q8NB16
# PROTOCOL_DESCRIPTION: MLKL degradation assay in HepG2 cell line (western blot)
# Assay type: cell-based
# Set-up: endogenous in cells; host or cells: HepG2 or HaCaT
# MEASUREMENT_SETUP: compound 10 μM; cell line not given
Okay, here is how we bin by Degradation assay (Degradation %) 10 μM: bin A = under 40%, bin B = from 40% up to 70%, bin C = 70% and over

These recorded examples may help you get a feel for the data.
*Q* Looking at Nc1ncc(-c2cnn(C3CCN(C(=O)C4CCN(C(=O)CNc5ccc6c(c5)C(=O)N(C5CCC(=O)NC5=O)C6=O)CC4)CC3)c2)nc1C(=O)O[C@@H](C(=O)Nc1ccc(F)cc1)c1ccccc1 (stereo partly shown) , which class would you pick?
*A* bin C

*Q* Looking at Nc1ncc(-c2cnn(C3CCN(CCC4CCN(C5CC6(CCN(C(=O)Cc7cccc(NC8=CC(=O)N(C9CCC(=O)NC9=O)C8=O)c7)CC6)C5)CC4)CC3)c2)nc1C(=O)O[C@@H](C(=O)Nc1ccc(F)cc1)c1ccccc1 (stereo partly shown) , which class would you pick?
*A* bin C

*Q* Looking at Nc1ncc(-c2cnn(C3CCN(C(=O)CC4CCN(C(=O)CNc5cccc6nnn(C7CCC(=O)NC7=O)c(=O)c56)CC4)CC3)c2)nc1C(=O)O[C@@H](C(=O)Nc1ccc(F)cc1)c1ccccc1 (stereo partly shown) , which class would you pick?
*A* bin B

Further cases:
*Q* Looking at Nc1ncc(-c2cnn(C3CCN(C(=O)CC4CCN(c5cccc6c5C(=O)N(C5CCC(=O)NC5=O)C6=O)CC4)CC3)c2)nc1C(=O)O[C@@H](C(=O)Nc1ccc(F)cc1)c1ccccc1 (stereo partly shown) , which class would you pick?
*A* bin B

*Q* Looking at Nc1ncc(-c2cn(C3CCN(CC4CCN(c5cccc6c5C(=O)N(C5CCC(=O)NC5=O)C6=O)CC4)CC3)nn2)nc1C(=O)OC(C(=O)Nc1ccc(F)cc1)c1ccccc1 (stereo not shown) , which class would you pick?
*A* bin A

*Q* Looking at Nc1ncc(-c2cnn(C3CCN(CC4CCN(C(=O)CNc5cccc6c5C(=O)N(C5CCC(=O)NC5=O)C6=O)CC4)CC3)c2)nc1C(=O)N[C@@H](C(=O)Nc1ccc(F)cc1)c1ccccc1 (stereo partly shown) , which class would you pick?
*A* bin A

*Q* Looking at Nc1ncc(-c2cnn(C3CCN(C(=O)c4cn(C5CCN(C(=O)COc6cccc7c6C(=O)N(C6CCC(=O)NC6=O)C7=O)CC5)cn4)CC3)c2)nc1C(=O)O[C@@H](C(=O)Nc1ccc(F)cc1)c1ccccc1 (stereo partly shown) , which class would you pick?
*A* bin B

*Q* Looking at Nc1ncc(-c2cnn(C3CCN(C(=O)CCC4CCN(C(=O)COc5ccc6c(c5)C(=O)N(C5CCC(=O)NC5=O)C6=O)CC4)CC3)c2)nc1C(=O)O[C@@H](C(=O)Nc1ccc(F)cc1)c1ccccc1 (stereo partly shown) , which class would you pick?
*A* bin C

*Q* Looking at Nc1ncc(-c2cnn(C3CCN(CCCCCCCCCCNC(=O)C4CN(c5ccc6c(c5)C(=O)N(C5CCC(=O)NC5=O)C6=O)C4)CC3)c2)nc1C(=O)O[C@@H](C(=O)Nc1ccc(F)cc1)c1ccccc1 (stereo partly shown) , which class would you pick?
*A* bin A

* * *

# STUDY_TARGET: MLKL (Homo sapiens, UniProt Q8NB16)
# PROTOCOL_DESCRIPTION: MLKL degradation assay in HepG2 cell line (western blot)
# Assay type: cell-based
# Design: endogenous in cells; host or cells: HepG2 or HaCaT
# MEASUREMENT_SETUP: compound 1 μM; cell line not given
Note to self: use 1 (yes) only for Degradation assay (Degradation %) 1 μM readings below 50%; a reading exactly at 50% still gets 0 (no).

These recorded examples may help you get a feel for the data.
*Q* Lab log: compare recorded Degradation assay (Degradation %) 1 μM with 50%; is it strictly lower for Nc1ncc(-c2cnn(C3CCN(C(=O)CC4CCN(C(=O)CCc5cccc6c5CN(C5CCC(=O)NC5=O)C6=O)CC4)CC3)c2)nc1C(=O)O[C@@H](C(=O)Nc1ccc(F)cc1)c1ccccc1 (stereo partly shown) [TDH-404] ?
*A* 1 (yes)

*Q* Lab log: compare recorded Degradation assay (Degradation %) 1 μM with 50%; is it strictly lower for Nc1ncc(-c2cnn(C3CCN(CCC4CCN(C(=O)CNc5ccc6c(c5)C(=O)N(C5CCC(=O)NC5=O)C6=O)CC4)CC3)c2)nc1C(=O)O[C@@H](C(=O)Nc1ccc(F)cc1)c1ccccc1 (stereo partly shown) [TDH-199] ?
*A* 0 (no)

*Q* Lab log: compare recorded Degradation assay (Degradation %) 1 μM with 50%; is it strictly lower for Nc1ncc(-c2cnn(C3CCN(CCCN4CC5CC4CN5C(=O)COc4ccc5c(c4)C(=O)N(C4CCC(=O)NC4=O)C5=O)CC3)c2)nc1C(=O)O[C@@H](C(=O)Nc1ccc(F)cc1)c1ccccc1 (stereo partly shown) [TDH-453] ?
*A* 0 (no)

Continue with the compound presented below.
*Q* Lab log: compare recorded Degradation assay (Degradation %) 1 μM with 50%; is it strictly lower for Nc1ncc(-c2cnn(C3CCN(CCOCCOCCOCCNC(=O)COc4cccc5c4C(=O)N(C4CCC(=O)NC4=O)C5=O)CC3)c2)nc1C(=O)O[C@@H](C(=O)Nc1ccc(F)cc1)c1ccccc1 (stereo partly shown) [TDH-155] ?
*A* 1 (yes)

* * *

# STUDY_TARGET: UniProt Q8NB16
# Sequence (Q8NB16 1-471): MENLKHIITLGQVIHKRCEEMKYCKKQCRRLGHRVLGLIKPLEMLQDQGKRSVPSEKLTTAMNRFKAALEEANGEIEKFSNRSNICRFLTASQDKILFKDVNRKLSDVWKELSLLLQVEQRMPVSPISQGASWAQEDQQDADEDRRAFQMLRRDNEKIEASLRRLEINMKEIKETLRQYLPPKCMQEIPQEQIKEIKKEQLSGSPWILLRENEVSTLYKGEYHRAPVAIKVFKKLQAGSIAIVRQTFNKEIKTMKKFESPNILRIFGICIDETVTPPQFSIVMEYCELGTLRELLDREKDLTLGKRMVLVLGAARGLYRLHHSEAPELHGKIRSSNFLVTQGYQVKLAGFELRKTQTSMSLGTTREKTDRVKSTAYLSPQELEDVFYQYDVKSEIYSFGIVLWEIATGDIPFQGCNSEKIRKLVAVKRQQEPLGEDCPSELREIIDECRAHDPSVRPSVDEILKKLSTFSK
# PROTOCOL_DESCRIPTION: MLKL degradation assay in HepG2 cell line (western blot)
# Format: cell-based
# Set-up: endogenous in cells; host or cells: HepG2 or HaCaT
# MEASUREMENT_SETUP: compound 1 μM; cell line not given
Note to self: use Condition met only for Degradation assay (Degradation %) 1 μM readings below 60%; a reading exactly at 60% still gets Condition not met.

These recorded examples may help you get a feel for the data.
*Q* Lab log: compare recorded Degradation assay (Degradation %) 1 μM with 60%; is it strictly lower for Nc1ncc(-c2cnn(C3CCN(CCCC4CCN(C(=O)COc5ccc6c(c5)C(=O)N(C5CCC(=O)NC5=O)C6=O)CC4)CC3)c2)nc1C(=O)O[C@@H](C(=O)Nc1ccc(F)cc1)c1ccccc1 (stereo partly shown) ?
*A* Condition not met

*Q* Lab log: compare recorded Degradation assay (Degradation %) 1 μM with 60%; is it strictly lower for Nc1ncc(-c2cnn(C3CCN(C(=O)CCC4CCN(C(=O)CCc5cccc6c5CN(C5CCC(=O)NC5=O)C6=O)CC4)CC3)c2)nc1C(=O)O[C@@H](C(=O)Nc1ccc(F)cc1)c1ccccc1 (stereo partly shown) ?
*A* Condition not met

*Q* Lab log: compare recorded Degradation assay (Degradation %) 1 μM with 60%; is it strictly lower for Nc1ncc(-c2cnn(C3CCN(C(=O)COC4CCN(C(=O)CNc5ccc6c(c5)C(=O)N(C5CCC(=O)NC5=O)C6=O)CC4)CC3)c2)nc1C(=O)O[C@@H](C(=O)Nc1ccc(F)cc1)c1ccccc1 (stereo partly shown) ?
*A* Condition met

Continue with the molecule presented below.
*Q* Lab log: compare recorded Degradation assay (Degradation %) 1 μM with 60%; is it strictly lower for Nc1ncc(-c2cnn(C3CCN(C(=O)C4CCN(C(=O)CCc5cccc6c5CN(C5CCC(=O)NC5=O)C6=O)CC4)CC3)c2)nc1C(=O)O[C@@H](C(=O)Nc1ccc(F)cc1)c1ccccc1 (stereo partly shown) ?
*A* Condition not met

* * *

# STUDY_TARGET: MLKL (Homo sapiens)
# Sequence (Q8NB16 1-471): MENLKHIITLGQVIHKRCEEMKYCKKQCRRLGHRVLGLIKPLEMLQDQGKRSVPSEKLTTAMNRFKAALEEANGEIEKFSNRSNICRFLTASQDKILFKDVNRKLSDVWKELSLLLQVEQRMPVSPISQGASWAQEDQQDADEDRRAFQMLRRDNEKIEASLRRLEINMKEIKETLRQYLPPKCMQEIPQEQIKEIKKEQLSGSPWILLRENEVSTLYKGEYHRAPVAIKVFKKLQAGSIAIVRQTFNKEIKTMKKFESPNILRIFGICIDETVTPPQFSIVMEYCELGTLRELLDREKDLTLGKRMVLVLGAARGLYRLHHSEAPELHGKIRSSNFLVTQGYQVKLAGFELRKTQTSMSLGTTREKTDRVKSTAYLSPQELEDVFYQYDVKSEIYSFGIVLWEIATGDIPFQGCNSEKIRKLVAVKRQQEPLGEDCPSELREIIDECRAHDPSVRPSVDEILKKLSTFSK
# PROTOCOL_DESCRIPTION: MLKL degradation assay in HepG2 cell line (western blot)
# Format: cell-based
# Set-up: endogenous in cells; host or cells: HepG2 or HaCaT
# MEASUREMENT_SETUP: compound 10 μM; cell line not given
The entries below are paired with their reported Degradation assay (Degradation %) 10 μM.
Give a bare numeral; the unit % is implied.

Example entries and their recorded answers appear below.
Degradation assay (Degradation %) 10 μM measured on Nc1ncc(-c2cnn(C3CCN(CCC4CCN(C(=O)C5CCN(c6ccc7nnn(C8CCC(=O)NC8=O)c(=O)c7c6)CC5)CC4)CC3)c2)nc1C(=O)OC(C(=O)Nc1ccc(F)cc1)c1ccccc1 (stereo not drawn) [TDH-290] = 44.97

Degradation assay (Degradation %) 10 μM measured on Nc1ncc(-c2cnn(C3CCN(C(=O)CCC4CCN(C(=O)C5CCN(c6ccc7nnn(C8CCC(=O)NC8=O)c(=O)c7c6)CC5)CC4)CC3)c2)nc1C(=O)O[C@@H](C(=O)Nc1ccc(F)cc1)c1ccccc1 (stereo partly drawn) [TDH-436] = 71.25

Next molecule, please.
Degradation assay (Degradation %) 10 μM measured on Nc1ncc(-c2cnn(C3CCN(CCC4CCN(C(=O)C5CCN(c6cccc7nnn(C8CCC(=O)NC8=O)c(=O)c67)CC5)CC4)CC3)c2)nc1C(=O)OC(C(=O)Nc1ccc(F)cc1)c1ccccc1 (stereo not drawn) [TDH-289] = 43.03
